meta.source: the supplement of paper PMC6607015

Tested on: A431
EXPERIMENTAL_PROTOCOL: filipin (cholesterol) integrated intensity within LBPA endosomes, Z-score; higher = more cholesterol in LBPA endosomes
CONDITIONS: compound concentration in added solution (µM; 5 µl added to 20 µl cells): 10; 18 h
Counter-ions that a name gives are not always drawn.
I'd appreciate it if you could supply filipin (z-score) values for the items below.
When you answer, write just the number.

// lookup filipin (z-score) for CN1CCN(C(=O)OC2c3nccnc3C(=O)N2c2ccc(Cl)cn2)CC1 (stereo unspecified)
-0.406

Consider the compound C[C@]12CC[C@H]3[C@@H](CCC4=CC(=O)CC[C@@H]43)[C@@H]1CC[C@@H]2O and give its measured filipin (z-score).
-0.296

Record request: filipin (z-score) value, item CO[C@]12C[C@@H](COC(=O)c3cncc(Br)c3)CN(C)[C@@H]1Cc1cn(C)c3cccc2c13
3.09

Can you share its filipin (z-score)? I mean this compound: C#C[C@]1(O)CC[C@H]2[C@@H]3CCC4=CC(=O)CC[C@]4(C)[C@H]3CC[C@@]21C
-0.449

Name the reported filipin (z-score) value associated with the compound CC(=O)[C@H]1CC[C@H]2[C@@H]3CC[C@H]4C[C@H](O)CC[C@]4(C)[C@H]3C(=O)C[C@]12C
0.378

Looking for the measured filipin (z-score) of CCNC1(c2cccs2)CCCCC1=O (stereo unspecified) [Tiletamine hydrochloride] , can you help?
-0.475

Look at this compound and give its reported filipin (z-score). C[C@@H]1CN([C@H]2CC[C@](C#N)(c3ccc(F)cc3)CC2)CC[C@]1(C(=O)O)c1ccccc1 [Levocabastine hydrochloride]
-0.388

Could you share which filipin (z-score) value was measured for CNCC(O)c1ccc(O)cc1 (racemic) [(+,-)-Synephrine] ?
-0.481

Entry C=C1[C@@H]2CC[C@H]3[C@]4(C)C[C@H](O[C@@H]5O[C@H](CO)[C@@H](OS(=O)(=O)O)[C@H](OS(=O)(=O)O)[C@H]5OC(=O)CC(C)C)C[C@@H](C(=O)O)[C@H]4CC[C@]3(C2)[C@@H]1O [Atractyloside potassium salt] has what filipin (z-score)?
-0.383

Could you share which filipin (z-score) value was measured for CC[N+]1(C)CCCC(OC(=O)C(O)(c2ccccc2)c2ccccc2)C1 (stereo unspecified) [Pipenzolate bromide] ?
-0.297

// filipin (z-score) lookup, key: C[C@]12C[C@H]3S[C@H]3C[C@@H]1CC[C@@H]1[C@@H]2CC[C@]2(C)[C@@H](O)CC[C@@H]12 [Epitiostanol]
-0.364

Would you mind telling me what filipin (z-score) value was observed for C[C@]12Cc3c[nH]nc3C[C@@H]1CC[C@@H]1[C@@H]2CC[C@@]2(C)[C@H]1CC[C@]2(C)O ?
0.0473

What measured filipin (z-score) goes with COc1ccc(Cc2nccc3cc(OC)c(OC)cc23)cc1OC [Papaverine hydrochloride] ?
-0.607

What measured filipin (z-score) goes with C[C@]12CC[C@@H](O)C[C@H]1CC[C@@H]1[C@@H]2CC[C@]2(C)C(=O)CC[C@@H]12 [3-alpha-Hydroxy-5-beta-androstan-17-one] ?
-0.175

Any idea what its filipin (z-score) is? The compound is CN(C)C(=O)Oc1cc(OC(=O)N(C)C)cc(C(O)CNC(C)(C)C)c1 (stereo unspecified) [Bambuterol hydrochloride]
-0.64

Please look up its filipin (z-score): CN1[C@@H]2CC[C@H]1C[C@@H](OC(=O)[C@H](CO)c1ccccc1)C2
-0.664

# input compound: O=P1(N(CCCl)CCCl)NCCCO1 (stereo unspecified) [Cyclophosphamide] ; wanted: its filipin (z-score)
-0.311

Fill blank: measured filipin (z-score) of the compound C[C@H](N)[C@H](O)c1ccc(O)c(O)c1 is ____.
-0.427

I have this compound here, Oc1ccc2c3c1O[C@H]1[C@@H](O)CC[C@@]4(O)[C@@H](C2)N(CC2CCC2)CC[C@]314 [Nalbuphine hydrochloride] , and I need its recorded filipin (z-score).
-0.572

So what does the record say about filipin (z-score) for CCN[C@@H](C)Cc1cccc(C(F)(F)F)c1 [Dexfenfluramine hydrochloride] ?
-0.444

Can you look up the measured filipin (z-score) of CC(=O)O[C@H]1C[C@@H]2CC[C@@H]3[C@H](CC[C@@]4(C)[C@H]3C[C@H]([N+]3(C)CCCCC3)[C@@H]4OC(C)=O)[C@@]2(C)C[C@@H]1[N+]1(C)CCCCC1 [Pancuronium bromide] for me?
-0.527

* * *

Tested on: HeLa MZ
EXPERIMENTAL_PROTOCOL: LBPA endosome anti-LBPA integrated intensity (sum per cell), Z-score; higher = more LBPA staining
CONDITIONS: compound concentration in added solution (µM; 5 µl added to 20 µl cells): 10; 18 h
Structures can show the parent of a compound that is named as a salt.
MEASURE_NAME: LBPA endosome anti-LBPA integrated intensity (z-score)
No unit in the answer, only the number.

Item O=[N+]([O-])c1cc([As](=O)(O)O)ccc1O with HeLa MZ - LBPA endosome anti-LBPA integrated intensity (z-score)?
-1.01

// lookup LBPA endosome anti-LBPA integrated intensity (z-score) | system=HeLa MZ | key= CC(C)[N+](C)(CCC(C(N)=O)(c1ccccc1)c1ccccc1)C(C)C [Isopropamide iodide]
0.0469

Value wanted: LBPA endosome anti-LBPA integrated intensity (z-score) (HeLa MZ) of entry COc1ccc2c(c1)[C@]13CCCC[C@@H]1[C@H](C2)N(C)CC3 [Dextromethorphan hydrobromide monohydrate]
0.494

* * *

System: HeLa MZ
EXPERIMENTAL_PROTOCOL: filipin (cholesterol) integrated intensity within LBPA endosomes, Z-score; higher = more cholesterol in LBPA endosomes
CONDITIONS: compound concentration in added solution (µM; 5 µl added to 20 µl cells): 10; 18 h
Structures can show the parent of a compound that is named as a salt.
Classes are defined on filipin (z-score) with ranges low end = under -0.6, middle = from -0.6 up to -0.3, high end = -0.3 and over

Please let me know in which category the item CC(C)CC(N(C)C)C1(c2ccc(Cl)cc2)CCC1 (configuration not stated) [Sibutramine HCl] belongs.
middle

Lab note: sort CC(N)C(O)c1ccccc1 (configuration not stated) [Phenylpropanolamine hydrochloride] into the matching filipin (z-score) band.
middle

Where would C[C@H](N)[C@H](O)c1ccc(O)c(O)c1 land among the classes by reported filipin (z-score)?
middle

GET /class?item= CCNC1(c2cccs2)CCCCC1=O (configuration not stated) [Tiletamine hydrochloride]
middle

Please report the category associated with NCCc1c[nH]c2ccc(O)cc12 [Serotonin hydrochloride] , nothing else.
low end

Please classify: C[C@@H]1CN([C@H]2CC[C@](C#N)(c3ccc(F)cc3)CC2)CC[C@]1(C(=O)O)c1ccccc1 [Levocabastine hydrochloride]
middle

Dear colleague, I would appreciate it if you could identify the bin for O=c1[nH]c2ccccc2n1CCCN1CCC(n2c(=O)[nH]c3cc(Cl)ccc32)CC1 and reply at your convenience.
high end

State the band of CCCN1C[C@H](CSC)C[C@@H]2c3cccc4[nH]cc(c34)C[C@H]21 [Pergolide mesylate]
high end

Hey, which category is C#C[C@]1(O)CC[C@H]2[C@@H]3CCC4=CC(=O)CCC4=C3C=C[C@@]21CC in, do you know?
middle

// bin(item) where item = CC(=O)O[C@H]1CC[C@@]2(C)C(=CC[C@@H]3[C@@H]2CC[C@]2(C)C(=O)CC[C@@H]32)C1 [Dehydroisoandosterone 3-acetate]
high end

Exam item: assign NCCC(O)C(=O)NC1CC(N)C(OC2OC(CN)C(O)[C@H](O)[C@@H]2N)[C@H](OC2O[C@H](CO)[C@@H](O)[C@@H]2O)[C@@H]1O (some centres not stated) [Butirosin disulfate salt] to the correct category.
high end

Class (by measured filipin (z-score)) for O=C([O-])c1ccccc1-c1c2cc(Br)c(=O)cc-2oc2[c]([Hg+])c([O-])c(Br)cc12.[Na+].[Na+].[OH-]
low end

* * *

Consider the following compounds; for each one, report its whole-cell filipin (z-score).
Test system: HeLa MZ
EXPERIMENTAL_PROTOCOL: whole-cell filipin (free cholesterol) integrated intensity, Z-score; higher = more cholesterol staining
CONDITIONS: compound concentration in added solution (µM; 5 µl added to 20 µl cells): 10; 18 h
Where a name gives a salt, the structure may show the parent alone.
Please reply with the value in numeric form only.

So what's the measured whole-cell filipin (z-score) for this one? CC(C)c1cccc(C(C)C)c1O
-0.391

I am curious: what whole-cell filipin (z-score) value has been reported for O=c1[nH]c2ccccc2n1C1CCN(CCCC(c2ccc(F)cc2)c2ccc(F)cc2)CC1 [Pimozide] ?
-0.393

Given O[C@@H]1CCCC[C@H]1N1CCC(c2ccccc2)CC1 [L(-)-vesamicol hydrochloride] , state its recorded whole-cell filipin (z-score).
0.285

Recorded whole-cell filipin (z-score) of CC(C)(N)Cc1ccccc1 [Phentermine hydrochloride] , please.
0.563

GET /values?readout=whole-cell filipin (z-score)&item= S=C(NC1CCCCC1)N1CCC(c2cnc[nH]2)CC1 [Thioperamide maleate]
0.0454

Which whole-cell filipin (z-score) value belongs to CC(=O)NC1CCSC1=O (racemic) ?
-0.0159

Need whole-cell filipin (z-score), item O=C(CCCN1CCC(n2c(=O)[nH]c3ccccc32)CC1)c1ccc(F)cc1
1.83

Given CC(O)(CS(=O)(=O)c1ccc(F)cc1)C(=O)Nc1ccc(C#N)c(C(F)(F)F)c1 (configuration not stated) [Bicalutamide] , state its recorded whole-cell filipin (z-score).
0.26

Fill blank: measured whole-cell filipin (z-score) of the compound CCN[C@@H](C)Cc1cccc(C(F)(F)F)c1 [Dexfenfluramine hydrochloride] is ____.
-0.721

Which whole-cell filipin (z-score) reading was recorded for the compound CCCN1C[C@H](CSC)C[C@@H]2c3cccc4[nH]cc(c34)C[C@H]21 [Pergolide mesylate] ?
-0.788

Can you share its whole-cell filipin (z-score)? I mean this compound: C=C1C[C@@H]2[C@H](CC[C@]3(C)C(=O)CC[C@@H]23)[C@@]2(C)C=CC(=O)C=C12
-0.2

Fill in: whole-cell filipin (z-score) of CC(C)CC(N(C)C)C1(c2ccc(Cl)cc2)CCC1 (configuration not stated) [Sibutramine HCl] is ___
-0.373
